// data source = paper PMC10754118

The entries below come with measured half-life at 1.9 mM values attached.
# measurement.description: Chemical hydrolysis in phosphate buffer saline (PBS, pH 7.3)
# Format: physicochemical
# condition.parameters: PBS pH 7.3, 37 °C, read-out: PBS pH 7.3 t 1/2 (converted)
metric: half-life at 1.9 mM

molecule: CCCCCCCCCCCCCCCCCCP(=O)(OCCCC)OP(=O)(O)OP(=O)(O)OC[C@@H]1O[C@H](n2cc(F)c(N)nc2=O)CS1 (stereo partly drawn) [10cx]
value.observed: > 83.3 days
//
molecule: CCCCCCCCCCCCCCCCCCOP(=O)(OCCCC)OP(=O)(O)OP(=O)(O)OC[C@H]1O[C@@H](n2cc(Cl)c(=O)[nH]c2=O)C[C@@H]1F (stereo partly drawn) [10dv]
value.observed: > 83.3 days
//
molecule: CCCCCCCCCCCCCCCCCCOP(=O)(O)OP(=O)(O)OP(=O)(O)OCC1OC(n2cc(C)c(=O)[nH]c2=O)CC1N=[N+]=[N-] (stereo not drawn) [20b, γ‐(alkyl‐C18)‐AZTTP]
value.observed: > 83.3 days
//
molecule: CCCCCCCCCCCCCCCCCCOP(=O)(OCc1ccc(OC(=O)CCCC)cc1)OP(=O)(O)OP(=O)(O)OC[C@H]1O[C@@H](n2cc(C)c(=O)[nH]c2=O)C[C@@H]1F (stereo partly drawn) [10ey]
value.observed: > 16.7 days
//
molecule: CCCCCCCCCCCCCCCCCCOP(=O)(OCC(CC)CCCC)OP(=O)(O)OP(=O)(O)OC[C@H]1O[C@@H](n2ccc(=O)[nH]c2=O)C[C@@H]1F (stereo partly drawn) [10fw]
value.observed: > 83.3 days
//
molecule: CCCCCCCCCCCCCCCCCCP(=O)(OCCCC)OP(=O)(O)OP(=O)(O)OC[C@H]1O[C@@H](n2cc(C)c(=O)[nH]c2=O)C[C@@H]1N=[N+]=[N-] (stereo partly drawn) [10bx]
value.observed: > 62.5 days
//
molecule: CCCCCCCCCCCCCCCCCCOP(=O)(OCC(CC)CCCC)OP(=O)(O)OP(=O)(O)OC[C@@H]1O[C@H](n2cc(F)c(N)nc2=O)CS1 (stereo partly drawn) [10cw]
value.observed: > 83.3 days
//
molecule: CCCCCCCCCCCCCCCCCCP(=O)(OCCCC)OP(=O)(O)OP(=O)(O)OC[C@H]1O[C@@H](n2cc(/C=C/Br)c(=O)[nH]c2=O)C[C@@H]1O (stereo partly drawn) [10gx]
value.observed: > 41.7 days
//
molecule: CCCCCCCCCCCCCCCCCCP(=O)(OCCCC)OP(=O)(O)OP(=O)(O)OC[C@@H]1C=C[C@H](n2cnc3c(NC4CC4)nc(N)nc32)C1 (stereo partly drawn) [10hx]
value.observed: > 41.7 days
//
molecule: CCCCCCCCCCCCCCCCCCOP(=O)(O)OP(=O)(O)OP(=O)(O)OC[C@H]1O[C@@H](n2cc(C)c(=O)[nH]c2=O)C[C@@H]1F [20f, γ‐C18‐FLTTP]
value.observed: > 83.3 days
//
molecule: CCCCCCCCCCCCCCCCCCOP(=O)(O)OP(=O)(O)OP(=O)(O)OC[C@@H]1C=C[C@H](n2cnc3c(NC4CC4)nc(N)nc32)C1 [20h, γ‐C18‐ABCTP]
value.observed: > 83.3 days
//
molecule: CCCCCCCCCCCCCCCCCCOP(=O)(OCCCC)OP(=O)(O)OP(=O)(O)OC[C@H]1O[C@@H](n2cc(C)c(=O)[nH]c2=O)C[C@@H]1N=[N+]=[N-] (stereo partly drawn) [10bv, γ‐(alkyl‐C4;alkyl‐C18)‐AZTTP]
value.observed: > 83.3 days
